Item-by-item account of pIC50
System: RAW264.7
assay procedure: Inhibition of LPS-induced TNFalpha production in mouse RAW264.7 cells by ELISA
Assay type: functional, cell-based
pIC50: −log10 of the molar value.

# molecule, target under test, pIC50
records = [
    ("CCOC(=O)C1=CCCCC1S(=O)(=O)Nc1ccc(Cl)cc1F (centres undefined)", "RAW264.7", 6.64),
    ("CCOC(=O)C1=CCCC[C@H]1S(=O)(=O)Nc1ccc(F)cc1Cl [RESATORVID]", "RAW264.7", 8.72),
    ("CCOC(=O)C1=CCCCC1S(=O)(=O)Nc1ccc(F)cc1Cl (centres undefined)", "RAW264.7", 8.47),
    ("CCOC(=O)C1=CCCC[C@@H]1S(=O)(=O)Nc1ccc(F)cc1Cl", "RAW264.7", 6.13),
]
